Tested on: lipase
Assay: Lipase/lipolysis assay (EnzChek Lipase Substrate, quenched BODIPY-fatty acid conjugate) on stored human milk; further: test concentration or dose not given here
MEASURED_PROPERTY: Lipase (RFU)
Please respond with the number in RFU and leave the unit unwritten.

{"MOLECULE": "C/C=C/C(=O)C1=C(C)C=CCC1(C)C", "RECORDED_VALUE": 912.4849}
{"MOLECULE": "COc1cc2c(cc1OC)-c1c(OC)c(OC)cc3c1[C@H](C2)N(C)CC3", "RECORDED_VALUE": 922.5844}
{"MOLECULE": "COc1cc(OC)c2c(=O)cc(-c3ccc(OC)c(OC)c3)oc2c1", "RECORDED_VALUE": 1023.427}
{"MOLECULE": "CC(=O)OC(C)(C)/C=C/C(=O)[C@](C)(O)[C@H]1[C@H](O)C[C@@]2(C)[C@@H]3CC=C4[C@@H](C=C(O)C(=O)C4(C)C)[C@]3(C)C(=O)C[C@]12C", "RECORDED_VALUE": 641.6726}
{"MOLECULE": "O=C[C@@H](O)[C@H](O)[C@H](O)CO", "RECORDED_VALUE": 1341.366}
{"MOLECULE": "CC1=C(/C=C/C(C)=C/C=C/C(C)=C/C(=O)O)C(C)(C)CCC1=O [all-trans-4-Oxoretinoic acid]", "RECORDED_VALUE": 984.8749}
{"MOLECULE": "O=C(O)/C=C(\\CC(=O)O)C(=O)O [trans-Aconitic acid]", "RECORDED_VALUE": 946.0721}
{"MOLECULE": "COC(=O)[C@H](Cc1ccccc1)NC(=O)[C@H](CC(=O)O)NCCC(C)(C)C", "RECORDED_VALUE": 994.7737}

Q. // fetch Lipase (RFU) given entry C[C@@H]1O[C@@H](Oc2cc(O)c3c(=O)c(O)c(-c4ccc(O)cc4)oc3c2)[C@H](O)[C@H](O)[C@H]1O [Kaempferol-7-O-rhamnoside]
A. 963.8327

Q. Tell us which Lipase (RFU) value is on record for Oc1cc(O)c2cc(O)c(-c3cc(O)c(O)c(O)c3)[o+]c2c1.[Cl-] [Delphinidin (chloride)]
A. 816.1782

Q. Supply Lipase (RFU) value. Item: O=C([O-])[O-].[Ca+2] [Calcium carbonate]
A. 646.797

Q. Specify reported Lipase (RFU) for the molecule shown: CC[C@H]1OC(=O)C[C@@H](O)[C@H](C)[C@@H](O[C@@H]2O[C@H](C)[C@@H](O[C@H]3C[C@@](C)(O)[C@@H](O)[C@H](C)O3)[C@H](N(C)C)[C@H]2O)[C@@H](CC=O)C[C@@H](C)C(=O)/C=C/C(C)=C/[C@@H]1CO[C@@H]1O[C@H](C)[C@@H](O)[C@@H](OC)[C@H]1OC.O=C(O)C(O)C(O)C(=O)O [Tylosin (tartrate)]
A. 942.0391

Q. // fetch Lipase (RFU) given entry NC(Cc1c[nH]c2ccccc12)C(=O)O (racemic)
A. 935.3545

Q. // Input: `CCCCCCCCCCCCC/C=C/[C@@H](O)[C@@H](N)CO` . Output its Lipase (RFU) only.
A. 823.3956

Q. Look up Lipase (RFU) of `COc1cc(/C=C/C(=O)OCC[N+](C)(C)C)cc(OC)c1O` and report it.
A. 1084.597

Q. Return value of Lipase (RFU) for input O=C(O)CC(O)(C(=O)O)C(O)C(=O)O (stereo not drawn) , no commentary.
A. 1053.487

Q. Identify the reported Lipase (RFU) for the following entry. `C[C@@]12C=Cc3occc3[C@H]1CC[C@@]13C[C@@H](CC[C@H]12)[C@@](O)(CO)C3`
A. 608.7131

* * *

Entries and their measured Lipase (RFU) follow.
Test system: lipase
Assay: Lipase/lipolysis assay (EnzChek Lipase Substrate, quenched BODIPY-fatty acid conjugate) on stored human milk; further: test concentration or dose not given here
Hi, when you answer, please include the unit after the number. Thanks!

Worked examples, 6 molecules total:
{"MOLECULE": "COc1cc([C@@H]2Oc3c(O)cc([C@H]4Oc5cc(O)cc(O)c5C(=O)[C@@H]4O)cc3[C@H]2CO)ccc1O", "Lipase (RFU)": "921.666 RFU"}
{"MOLECULE": "Cl.O=C(O)Cc1cnc[nH]1 [Imidazoleacetic acid (hydrochloride)]", "Lipase (RFU)": "807.4109 RFU"}
{"MOLECULE": "CC1O[C@@H](OC[C@H]2O[C@@H](Oc3c(-c4ccc(O)cc4)oc4cc(O)cc(O)c4c3=O)C(O[C@@H]3O[C@H](C)[C@H](O)C(O)C3O)C(O)[C@H]2O)C(O)[C@@H](O)[C@H]1O (stereo partly shown)", "Lipase (RFU)": "860.4015 RFU"}
{"MOLECULE": "COc1cc(O)c2c(=O)cc(-c3ccc(O)c(O)c3)oc2c1 [Hydroxygenkwanin]", "Lipase (RFU)": "874.9866 RFU"}
{"MOLECULE": "C[N+](C)(C)CCOP(=O)(O)O [Phosphorylcholine]", "Lipase (RFU)": "1107.376 RFU"}
{"MOLECULE": "CC1(C)C[C@H]2C3=CC[C@@H]4[C@@]5(C)CC[C@H](O)[C@](C)(CO)[C@@H]5CC[C@@]4(C)[C@]3(C)CC[C@@]2(C)[C@H](O)[C@@H]1O", "Lipase (RFU)": "1098.785 RFU"}

Q. Check the records and state Lipase (RFU) for `O=c1c(O)c(-c2ccc(O)c(O)c2)oc2cc(O)c(O)c(O)c12`
A. 891.7095 RFU

Q. Determine its reported Lipase (RFU): `COc1cc2oc(=O)ccc2cc1CC=C(C)C`
A. 1003.25 RFU

Q. Provide measured Lipase (RFU) value, entry: `CN(C)CCc1ccc(O)cc1`
A. 1057.467 RFU

Q. Identify measured Lipase (RFU) associated with CC1(C)CC[C@]2(C(=O)O)CC[C@]3(C)C(=CC[C@@H]4[C@@]5(C)CC[C@H](O[C@@H]6O[C@H](C(=O)O)[C@@H](O)[C@H](O)[C@H]6O)C(C)(C)[C@@H]5CC[C@]43C)[C@@H]2C1 [Calenduloside E]
A. 1034.138 RFU

Q. Please give the documented Lipase (RFU) of `CCCCCCCC/C=C\CCCCCCCC(=O)O[C@H](CC(=O)[O-])C[N+](C)(C)C`
A. 870.8673 RFU

Q. Please report the measured Lipase (RFU) for `O=C(O)C[C@H](O)C(=O)O`
A. 1144.049 RFU

* * *

Tested on: lipase
Assay: Lipase/lipolysis assay (EnzChek Lipase Substrate, quenched BODIPY-fatty acid conjugate) on stored human milk; further: test concentration or dose not given here
The label is satisfied for Lipase (RFU) below 1000 RFU and not satisfied for Lipase (RFU) equal to or exceeding 1000 RFU.

Solved cases (2 shown):
{"COMPOUND": "C=C[C@]1(C)CC[C@@H](C(=C)C)C[C@H]1C(=C)C", "QUALITATIVE_LABEL": "not satisfied"}
{"COMPOUND": "O=c1ccc2cc3ccoc3c(O)c2o1", "QUALITATIVE_LABEL": "not satisfied"}

Q. Report whether reported Lipase (RFU) is lower than 1000 RFU (strictly) for `C=C(CC(=O)O)C(=O)O`
A. satisfied

Q. Lab log: compare recorded Lipase (RFU) with 1000 RFU; is it strictly lower for `CC(C)=CCC/C(C)=C/CC/C(C)=C/CC[C@]1(C)CCc2cc(O)cc(C)c2O1` ?
A. not satisfied

Q. Hi there! Is Lipase (RFU) for `N[C@H](CCC(=O)O)C(=O)O` below 1000 RFU, do you know?
A. not satisfied

Q. Is the reported Lipase (RFU) for CN1[C@@H]2CC[C@H]1C[C@@H](OC(=O)C(CO)c1ccccc1)C2 (stereo partly drawn) [Atropine] strictly below 1000 RFU?
A. not satisfied

Q. Please state whether Lipase (RFU) is below 1000 RFU for `OC[C@H](O)C(O)[C@@H](O)CO`
A. satisfied

Q. Please determine if C[C@@H](CN)C(=O)O [(S)-b-aminoisobutyric acid] is below 1000 RFU in terms of Lipase (RFU).
A. satisfied

Q. Here's an entry: CCO.C[C@H]1c2cccc(O)c2C(O)=C2C(=O)[C@]3(O)C(O)=C(C(N)=O)C(=O)[C@@H](N(C)C)[C@@H]3[C@@H](O)[C@@H]21.C[C@H]1c2cccc(O)c2C(O)=C2C(=O)[C@]3(O)C(O)=C(C(N)=O)C(=O)[C@@H](N(C)C)[C@@H]3[C@@H](O)[C@@H]21.Cl.Cl.O [Doxycycline (hyclate)] . Is its Lipase (RFU) below 1000 RFU?
A. satisfied

Q. Input `O=c1ccc2cc(O[C@@H]3O[C@H](CO)[C@@H](O)[C@H](O)[C@H]3O)c(O)cc2o1` ; condition: Lipase (RFU) strictly below 1000 RFU. Does it hold?
A. not satisfied

Q. Lab note: confirm whether the reported Lipase (RFU) for this compound is below 1000 RFU, equality not counting. compound: `CC(C)=CCc1c(O)ccc2ccc(=O)oc12`
A. satisfied

Q. Decide: Lipase (RFU) of CC1(C)CC[C@]2(C(=O)O[C@@H]3O[C@H](CO)[C@@H](O)[C@H](O)[C@H]3O)CC[C@]3(C)C(=CC[C@@H]4[C@@]5(C)CC[C@H](O[C@@H]6O[C@H](C(=O)O)[C@@H](O)[C@H](O)[C@H]6O[C@@H]6O[C@H](CO)[C@@H](O)[C@H](O)[C@H]6O)C(C)(C)[C@@H]5CC[C@]43C)[C@@H]2C1 [Ginsenoside Ro] strictly below 1000 RFU?
A. not satisfied

Q. Consider the compound `N[C@@H](CS)C(=O)NCC(=O)O` . Is its Lipase (RFU) strictly less than 1000 RFU?
A. satisfied

Q. Lab note: Lipase (RFU) threshold 1000 RFU. Does this compound come in strictly under it? OC[C@H]1O[C@H](OC[C@H]2OC(O)(CO)[C@@H](O)[C@@H]2O)[C@H](O)[C@@H](O)[C@@H]1O (stereo partly drawn)
A. satisfied

Q. Lab note: Lipase (RFU) threshold 1000 RFU. Does this compound come in strictly under it? `COc1cc(CCN)ccc1O`
A. satisfied
